conditions: in 2-butanone, 308.15 K
OBSERVABLE: solubility (mole fraction)
Output spec: single numeric token, no unit.

(Q) Form field: reported solubility (mole fraction) of O=Cc1ccc(O)cc1
(A) 0.229

###

settings: in toluene, 315.65 K
OBSERVABLE: solubility (mole fraction)
Output spec: single numeric token, no unit.

(Q) Form field: reported solubility (mole fraction) of O=Cc1ccc(O)cc1
(A) 0.00399

###

conditions: in DMF, 313.15 K
OBSERVABLE: solubility (mole fraction)

(Q) Form field: reported solubility (mole fraction) of O=Cc1ccc(O)cc1
(A) 0.416

###

conditions: in isopropanol, 300.65 K
OBSERVABLE: solubility (mole fraction)
Output spec: single numeric token, no unit.

(Q) Form field: reported solubility (mole fraction) of O=Cc1ccc(O)cc1
(A) 0.148

###

details: in DMF, 303.15 K
OBSERVABLE: solubility (mole fraction)
Output spec: single numeric token, no unit.

(Q) Form field: reported solubility (mole fraction) of O=Cc1ccc(O)cc1
(A) 0.27

###

details: in ethanol, 303.15 K
OBSERVABLE: solubility (mole fraction)
Output spec: single numeric token, no unit.

(Q) Form field: reported solubility (mole fraction) of O=Cc1ccc(O)cc1
(A) 0.142

###

details: in n-propanol, 298.15 K
OBSERVABLE: solubility (mole fraction)
Output spec: single numeric token, no unit.

(Q) Form field: reported solubility (mole fraction) of O=Cc1ccc(O)cc1
(A) 0.125

###

conditions: in DMF, 280.65 K
OBSERVABLE: solubility (mole fraction)
Output spec: single numeric token, no unit.

(Q) Form field: reported solubility (mole fraction) of O=Cc1ccc(O)cc1
(A) 0.0863

###

conditions: in DMF, 295.65 K
OBSERVABLE: solubility (mole fraction)
Output spec: single numeric token, no unit.

(Q) Form field: reported solubility (mole fraction) of O=Cc1ccc(O)cc1
(A) 0.191

###

conditions: in methanol, 285.65 K
OBSERVABLE: solubility (mole fraction)

(Q) Form field: reported solubility (mole fraction) of O=Cc1ccc(O)cc1
(A) 0.0516

###

details: in 2-butanone, 288.15 K
OBSERVABLE: solubility (mole fraction)
Output spec: single numeric token, no unit.

(Q) Form field: reported solubility (mole fraction) of O=Cc1ccc(O)cc1
(A) 0.111

###

settings: in n-butanol, 315.65 K
OBSERVABLE: solubility (mole fraction)
Output spec: single numeric token, no unit.

(Q) Form field: reported solubility (mole fraction) of O=Cc1ccc(O)cc1
(A) 0.239

###

conditions: in DMF, 310.65 K
OBSERVABLE: solubility (mole fraction)
Output spec: single numeric token, no unit.

(Q) Form field: reported solubility (mole fraction) of O=Cc1ccc(O)cc1
(A) 0.376

###

details: in acetonitrile, 315.65 K
OBSERVABLE: solubility (mole fraction)
Output spec: single numeric token, no unit.

(Q) Form field: reported solubility (mole fraction) of O=Cc1ccc(O)cc1
(A) 0.154

###

details: in isopropanol, 280.65 K
OBSERVABLE: solubility (mole fraction)
Output spec: single numeric token, no unit.

(Q) Form field: reported solubility (mole fraction) of O=Cc1ccc(O)cc1
(A) 0.0607

###

conditions: in n-butanol, 313.15 K
OBSERVABLE: solubility (mole fraction)

(Q) Form field: reported solubility (mole fraction) of O=Cc1ccc(O)cc1
(A) 0.22

###

conditions: in ethyl acetate, 285.65 K
OBSERVABLE: solubility (mole fraction)
Output spec: single numeric token, no unit.

(Q) Form field: reported solubility (mole fraction) of O=Cc1ccc(O)cc1
(A) 0.0968

###

conditions: in n-butanol, 280.65 K
OBSERVABLE: solubility (mole fraction)
Output spec: single numeric token, no unit.

(Q) Form field: reported solubility (mole fraction) of O=Cc1ccc(O)cc1
(A) 0.0615

###

settings: in toluene, 290.65 K
OBSERVABLE: solubility (mole fraction)
Output spec: single numeric token, no unit.

(Q) Form field: reported solubility (mole fraction) of O=Cc1ccc(O)cc1
(A) 0.00162

###

details: in acetone, 310.65 K
OBSERVABLE: solubility (mole fraction)
Output spec: single numeric token, no unit.

(Q) Form field: reported solubility (mole fraction) of O=Cc1ccc(O)cc1
(A) 0.24

###

conditions: in methanol, 290.65 K
OBSERVABLE: solubility (mole fraction)
Output spec: single numeric token, no unit.

(Q) Form field: reported solubility (mole fraction) of O=Cc1ccc(O)cc1
(A) 0.0668

###

conditions: in DMF, 293.15 K
OBSERVABLE: solubility (mole fraction)
Output spec: single numeric token, no unit.

(Q) Form field: reported solubility (mole fraction) of O=Cc1ccc(O)cc1
(A) 0.168

###

conditions: in ethanol, 283.15 K
OBSERVABLE: solubility (mole fraction)
Output spec: single numeric token, no unit.

(Q) Form field: reported solubility (mole fraction) of O=Cc1ccc(O)cc1
(A) 0.0563

###

conditions: in acetone, 303.15 K
OBSERVABLE: solubility (mole fraction)

(Q) Form field: reported solubility (mole fraction) of O=Cc1ccc(O)cc1
(A) 0.189

###

conditions: in DMF, 318.15 K
OBSERVABLE: solubility (mole fraction)
Output spec: single numeric token, no unit.

(Q) Form field: reported solubility (mole fraction) of O=Cc1ccc(O)cc1
(A) 0.504

###

conditions: in acetone, 293.15 K
OBSERVABLE: solubility (mole fraction)
Output spec: single numeric token, no unit.

(Q) Form field: reported solubility (mole fraction) of O=Cc1ccc(O)cc1
(A) 0.133

###

details: in acetonitrile, 310.65 K
OBSERVABLE: solubility (mole fraction)

(Q) Form field: reported solubility (mole fraction) of O=Cc1ccc(O)cc1
(A) 0.128

###

details: in acetonitrile, 318.15 K
OBSERVABLE: solubility (mole fraction)

(Q) Form field: reported solubility (mole fraction) of O=Cc1ccc(O)cc1
(A) 0.168

###

details: in ethanol, 310.65 K
OBSERVABLE: solubility (mole fraction)
Output spec: single numeric token, no unit.

(Q) Form field: reported solubility (mole fraction) of O=Cc1ccc(O)cc1
(A) 0.191

###

conditions: in toluene, 288.15 K
OBSERVABLE: solubility (mole fraction)

(Q) Form field: reported solubility (mole fraction) of O=Cc1ccc(O)cc1
(A) 0.00146

###

conditions: in 2-butanone, 300.65 K
OBSERVABLE: solubility (mole fraction)
Output spec: single numeric token, no unit.

(Q) Form field: reported solubility (mole fraction) of O=Cc1ccc(O)cc1
(A) 0.177

###

conditions: in ethanol, 315.65 K
OBSERVABLE: solubility (mole fraction)
Output spec: single numeric token, no unit.

(Q) Form field: reported solubility (mole fraction) of O=Cc1ccc(O)cc1
(A) 0.227

###

conditions: in 1,4-dioxane, 315.65 K
OBSERVABLE: solubility (mole fraction)
Output spec: single numeric token, no unit.

(Q) Form field: reported solubility (mole fraction) of O=Cc1ccc(O)cc1
(A) 0.299

###

conditions: in methanol, 310.65 K
OBSERVABLE: solubility (mole fraction)
Output spec: single numeric token, no unit.

(Q) Form field: reported solubility (mole fraction) of O=Cc1ccc(O)cc1
(A) 0.168

###

details: in acetonitrile, 305.65 K
OBSERVABLE: solubility (mole fraction)
Output spec: single numeric token, no unit.

(Q) Form field: reported solubility (mole fraction) of O=Cc1ccc(O)cc1
(A) 0.106

###

details: in ethanol, 313.15 K
OBSERVABLE: solubility (mole fraction)
Output spec: single numeric token, no unit.

(Q) Form field: reported solubility (mole fraction) of O=Cc1ccc(O)cc1
(A) 0.209

###

details: in ethanol, 285.65 K
OBSERVABLE: solubility (mole fraction)
Output spec: single numeric token, no unit.

(Q) Form field: reported solubility (mole fraction) of O=Cc1ccc(O)cc1
(A) 0.0639

###

conditions: in toluene, 300.65 K
OBSERVABLE: solubility (mole fraction)

(Q) Form field: reported solubility (mole fraction) of O=Cc1ccc(O)cc1
(A) 0.00236

###

details: in methanol, 315.65 K
OBSERVABLE: solubility (mole fraction)
Output spec: single numeric token, no unit.

(Q) Form field: reported solubility (mole fraction) of O=Cc1ccc(O)cc1
(A) 0.205

###

conditions: in ethanol, 295.65 K
OBSERVABLE: solubility (mole fraction)
Output spec: single numeric token, no unit.

(Q) Form field: reported solubility (mole fraction) of O=Cc1ccc(O)cc1
(A) 0.102

###

settings: in n-butanol, 308.15 K
OBSERVABLE: solubility (mole fraction)
Output spec: single numeric token, no unit.

(Q) Form field: reported solubility (mole fraction) of O=Cc1ccc(O)cc1
(A) 0.187

###

conditions: in acetonitrile, 288.15 K
OBSERVABLE: solubility (mole fraction)
Output spec: single numeric token, no unit.

(Q) Form field: reported solubility (mole fraction) of O=Cc1ccc(O)cc1
(A) 0.0508
